From: PubChem BioAssay AID1259416

procedureDetails: T. gondii growth inhibition with IFN-gamma, primary screen, cell-based (AID 1259416);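 note: host cells are HeLa cells infected with Toxoplasma gondii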
testContext: Toxoplasma gondii growth in IFN-gamma-treated host cells; stronger effect = lower value; concentration not given here
The campaign covered roughly 69,000 compounds. About 2,600 (3.8%) were called active. The entries come from a sample that favours actives as a whole.
observedProperty: activity change, negative = inhibition

Below: 5 compounds and their reported activity change, negative = inhibition.
O=C(CCc1ccco1)N1CCc2onc(-c3ccc(C(F)(F)F)cc3)c2C1 :: 9.55% (inactive)
Cn1c(SCc2csc(C3CCCCC3)n2)nc2ccccc2c1=O :: -80.1% (active)
O=C(c1nc2sccn2c1CN1CCC(c2ccccc2Cl)C1)N1CCCCC1 (stereo unspecified) :: 1.45% (inactive)
Cc1nc(CN2CCCn3nnc(COC(C)C)c3C2)cs1 :: 9.42% (inactive)
Cn1c(CNC(=O)CC2CCCC2)nnc1SCc1ccccn1 :: 2.95% (inactive)

Fill in the blank: the reported activity change, negative = inhibition of CC1=C(C(=O)NCCCN2CCCCC2)C2(CCN(S(C)(=O)=O)CC2)OC1=O is ____.
16.4% (inactive)

Fill in the blank: the reported activity change, negative = inhibition of CC(=O)N1CC(=O)N(c2cnn(C)c2)CC12CCN(C(=O)c1cnc(C)cn1)C2 (stereo unspecified) is ____.
8.89% (inactive)

Fill in the blank: the reported activity change, negative = inhibition of CN1C(=O)c2cc(NC(=O)c3ccc4c(c3)OCO4)ccc2OC[C@@H]2O[C@H](CC(=O)O)CC[C@H]21 is ____.
8.45% (inactive)

Fill in the blank: the reported activity change, negative = inhibition of Cc1c(CN(C)C(=O)COc2cccnc2)[nH]c2ccccc12 is ____.
66.9% (inactive)

Fill in the blank: the reported activity change, negative = inhibition of CC(C)CN1CCC2(C=C(C(=O)N(C)C)c3ccccc32)CC1 is ____.
-81.7% (active)

Fill in the blank: the reported activity change, negative = inhibition of CN(C)C(=O)c1cccc(-c2ccccc2[C@@H]2[C@@H](CO)N(C(=O)C3CCCCC3)[C@H]2C#N)c1 is ____.
-9.68% (inactive)

Fill in the blank: the reported activity change, negative = inhibition of C=CCn1c(SCc2ccc(C(=O)NCCO)cc2)nc2ccccc2c1=O is ____.
-34.4% (inactive)

Fill in the blank: the reported activity change, negative = inhibition of CC(C)CN1C(=O)N(C2Cc3ccccc3C2)C(=O)C12CCN(Cc1nc3ccccc3n1C)CC2 is ____.
-8.38% (inactive)

Fill in the blank: the reported activity change, negative = inhibition of O=C(c1cnccn1)N1CCC2(CC(=O)N(c3cccc(F)c3)C2)C1 (stereo unspecified) is ____.
-1.06% (inactive)

Fill in the blank: the reported activity change, negative = inhibition of COc1ccccc1CCC(=O)N1CCC2(CC1)Nc1cccnc1NC2=NC(C)(C)C is ____.
74.7% (inactive)

Fill in the blank: the reported activity change, negative = inhibition of CCSCCN(C(=O)c1nnc2nc(C)cc(C)n12)C1CCCCC1 is ____.
-3.21% (inactive)

Fill in the blank: the reported activity change, negative = inhibition of CC(C)CN1CCS(=O)(=O)[C@H]2CCN(S(=O)(=O)N(C)C)CC[C@@H]21 is ____.
-5.98% (inactive)

Fill in the blank: the reported activity change, negative = inhibition of Cc1ccsc1C(=O)N1CCC2(C1)CN(c1cccc(F)c1)C(=O)CN2C (stereo unspecified) is ____.
-102% (active)
